- System: Vero E6 infected with SARS-CoV-2
- TEST SUMMARY: SARS-CoV-2 infection rate relative to infected DMSO; higher = more infection, active = 60 or less
- PROTOCOL CONDITIONS: 24 h
READOUT NAME: SARS-CoV-2 infection rate

- O=C(O)c1cc(O)c2ccc(Cl)cc2n1 [7-chlorokynurenic-acid] (10 µM): 110% (inactive)
- Cc1[nH]c(/C=C2\C(=O)Nc3ccc(S(=O)(=O)Cc4c(Cl)cccc4Cl)cc32)c(C)c1C(=O)N1CCC[C@@H]1CN1CCCC1 (0.833333 µM): 106% (inactive)
- CN=C(N)NCCC[C@H](N)C(=O)O [L-monomethylarginine] (10 µM): 97% (inactive)

Now for the compound whose SARS-CoV-2 infection rate we want.
Data point: CC(C)[C@H](CO)Nc1nc(Nc2cccc(Cl)c2)c2ncn(C(C)C)c2n1 [purvalanol-A] (0.833333 µM) ; SARS-CoV-2 infection rate = 109% (inactive)

###

- Tested on: Vero E6 infected with SARS-CoV-2
- TEST SUMMARY: inhibition of SARS-CoV-2 cytopathic effect; higher = more antiviral protection, active = above 15
- PROTOCOL CONDITIONS: 833.33 nM; 48 h
READOUT NAME: inhibition of SARS-CoV-2 cytopathic effect (%)
One number for each entry, in %.

* COc1cc2c(cc1OC)CN(CCc1ccc(NC(=O)c3cccc4c(=O)c5cccc(OC)c5[nH]c34)cc1)CC2 | -0.09
* Clc1cccc(Cl)c1NC1=NCCN1 | 0.52
* COc1ccc2c(c1)C(C(=O)N(Cc1ccc(N(C)C)cc1)c1ccc(C(C)C)cc1)CCC2 (stereo not given) | 1.87
* O=C1C(Cl)=C(NCCN2CCOCC2)C(=O)c2ncccc21 | 6

The record that follows has no inhibition of SARS-CoV-2 cytopathic effect shown yet.
inhibition of SARS-CoV-2 cytopathic effect recorded for this compound, Cc1cccc(C)c1NC(=O)C1CCCCN1C (stereo not given) [mepivacaine] , is -0.18

###

- Test system: Vero E6 infected with SARS-CoV-2
- TEST SUMMARY: SARS-CoV-2 infection rate relative to infected DMSO; higher = more infection, active = 60 or less
- PROTOCOL CONDITIONS: 24 h
READOUT NAME: SARS-CoV-2 infection rate (%)
Numbers only, in %.

Okay, here is my list. What is SARS-CoV-2 infection rate for each of these?
1. CC[C@H]1OC(=O)[C@H](C)[C@@H](O[C@H]2C[C@@](C)(OC)[C@@H](O)[C@H](C)O2)[C@H](C)[C@@H](O[C@@H]2O[C@H](C)C[C@H](N(C)C)[C@H]2O)[C@](C)(O)C[C@@H](C)C(=O)[C@H](C)[C@@H](O)[C@]1(C)O [erythromycin] (10 µM)
2. Cc1cc(N2CCN([C@@H]3CN[C@H](C(=O)N4CCSC4)C3)CC2)n(-c2ccccc2)n1 [teneligliptin] (10 µM)
3. CC1(C)O[C@@H]2C[C@H]3[C@@H]4CCC5=CC(=O)CC[C@]5(C)[C@@]4(F)[C@@H](O)C[C@]3(C)[C@]2(C(=O)CCl)O1 [halcinonide] (10 µM)

OUTPUT:
1: 102; 2: 112; 3: 106

###

Please provide measured inhibition of SARS-CoV-2 cytopathic effect for the entries that follow.
- System: Vero E6 infected with SARS-CoV-2
- TEST SUMMARY: inhibition of SARS-CoV-2 cytopathic effect; higher = more antiviral protection, active = above 15
- PROTOCOL CONDITIONS: 833.33 nM; 48 h
Give bare numbers, in %.

Use these answered entries as a reference point.
- CCN(CC)C(=O)N[C@H]1C=C2c3cccc4[nH]cc(c34)C[C@H]2N(C)C1 [lisuride]: 7.27
- CCCCOc1cc(CC2CNC(=O)N2)ccc1OC (centres undefined): -0.63
- N#Cc1cnc2cnc(NCc3cccnc3)cc2c1Nc1ccc(F)c(Cl)c1: -1.3

Hi, could you look up inhibition of SARS-CoV-2 cytopathic effect for each item in my list?
1. C1CCC(C(CC2CCCCN2)C2CCCCC2)CC1 (centres undefined) [perhexiline]
2. CCn1c(=O)c(-c2ccc(Cl)cc2Cl)cc2cnc(Nc3ccc(N4CCNCC4)c(F)c3)nc21
3. O=C(O)CNC(=O)c1ccccc1I [2-iodohippuric-acid]
4. Cc1c(N)cccc1Cn1ccc(OCCc2cccs2)cc1=O
5. C=C1/C(=C\C=C2/CCC[C@]3(C)[C@@H]([C@H](C)/C=C/[C@@H](O)C4CC4)CC[C@@H]23)C[C@@H](O)C[C@@H]1O [calcipotriol]

OUTPUT:
0.87
-6.85
0.88
0.66
0.91

inhibition of SARS-CoV-2 cytopathic effect of COc1cc2nc(N3CCN(C(=O)C4CCCO4)CC3)nc(N)c2cc1OC (centres undefined) [terazosin] , assay on Vero E6 infected with SARS-CoV-2, is -0.05

###

- System: Vero E6 infected with SARS-CoV-2
- TEST SUMMARY: inhibition of SARS-CoV-2 cytopathic effect; higher = more antiviral protection, active = above 15
- PROTOCOL CONDITIONS: 100 nM; 48 h
Would you mind telling me the reported inhibition of SARS-CoV-2 cytopathic effect of each entry?

Each molecule below has a reported value. Please supply its inhibition of SARS-CoV-2 cytopathic effect.
1. COc1ccc(-c2ccc3cc(C(=O)O)ccc3c2)cc1C12CC3CC(CC(C3)C1)C2
2. O=C1Nc2ccccc2/C1=C1/Nc2ccccc2C1=O
3. C[C@H]1C[C@@H]2[C@H]([C@@H](O)C[C@@]3(C)[C@H]2CC[C@]3(O)C(=O)CO)[C@@]2(C)C=CC(=O)C=C12
4. CCN(CC)C(=O)/C(C#N)=C/c1cc(O)c(O)c([N+](=O)[O-])c1

OUTPUT:
1. 2.4% (inactive)
2. -0.33% (inactive)
3. -1.8% (inactive)
4. -1.61% (inactive)

Each of the following entries comes with a recorded value; kindly state inhibition of SARS-CoV-2 cytopathic effect for each.
1. NC(=O)NC1NC(=O)NC1=O (centres undefined)
2. CCc1cccc(CC)c1NC(=O)c1nn(C)c2c1CCc1cnc(Nc3ccc(C(=O)NC4CCN(C)CC4)cc3OC(F)(F)F)nc1-2
3. COc1ccc2c3c1O[C@H]1C[C@@H](O)C=C[C@@]31CCN(C)C2
4. c1ccc(CCNc2nc(-c3ccccc3)cs2)cc1
5. Cc1ccc(S(=O)(=O)Nc2ccc3c(c2)c(C(=O)C(F)(F)F)cn3CC(=O)N[C@@H](CC(C)C)C(=O)O)cc1
6. CCCCCCOc1nsnc1C1=CCCN(C)C1

OUTPUT:
1. -2.49% (inactive)
2. 1.53% (inactive)
3. 2.16% (inactive)
4. -2.73% (inactive)
5. -1.37% (inactive)
6. -1.23% (inactive)

Hey, can you go through the list below and give me inhibition of SARS-CoV-2 cytopathic effect for every item?
1. Nc1nc(=O)n([C@@H]2CS[C@H](CO)O2)cc1F
2. c1ccc2c(c1)CCC[C@H]2Nc1nc2ccccc2[nH]1
3. O=C(O)C1CN(Cc2ccc(-c3nc4cc(Cc5ccccc5F)ccc4s3)c(F)c2)C1
4. O=C(Oc1ccc([N+](=O)[O-])cc1)N1CCC(C(O)(c2ccc3c(c2)OCO3)c2ccc3c(c2)OCO3)CC1
5. CCn1cc(C(=O)O)c(=O)c2cnc(N3CCNCC3)nc21
6. C=CCN1CC[C@]2(C)c3cc(O)ccc3C[C@H]1[C@H]2C
7. CN=C(N)NCCC[C@H](N)C(=O)O
8. C[C@H](CS)C(=O)N1CCC[C@H]1C(=O)O

OUTPUT:
1. 4.2% (inactive)
2. 1.8% (inactive)
3. 2.02% (inactive)
4. 2.26% (inactive)
5. 1.17% (inactive)
6. -1.86% (inactive)
7. 0.7% (inactive)
8. -2.39% (inactive)

Measured inhibition of SARS-CoV-2 cytopathic effect, CC[C@@H](Nc1c(Nc2cccc(C(=O)N(C)C)c2O)c(=O)c1=O)c1ccc(C)o1 : 0.77% (inactive)

###

- Tested on: Vero E6 infected with SARS-CoV-2
- TEST SUMMARY: inhibition of SARS-CoV-2 cytopathic effect; higher = more antiviral protection, active = above 15
- PROTOCOL CONDITIONS: 833.33 nM; 48 h
Give measured inhibition of SARS-CoV-2 cytopathic effect for each item. Keep answers brief.
One number for each entry, in %.

- CC[C@H]1OC(=O)[C@H](C)[C@@H](O[C@H]2C[C@@](C)(OC)[C@@H](O)[C@H](C)O2)[C@H](C)[C@@H](O[C@@H]2O[C@H](C)C[C@H](N(C)C)[C@H]2O)[C@](C)(O)C[C@@H](C)CN(C)[C@H](C)[C@@H](O)[C@]1(C)O [azithromycin]: 0.56
- c1nc(CC2CCNCC2)c[nH]1 [immepip]: -0.04

// each molecule listed below needs its inhibition of SARS-CoV-2 cytopathic effect
1. Cc1cccc(C)c1NC(=O)CN1CCCC1=O [nefiracetam]
2. C=C1C(=O)O[C@@H]2C[C@@]3(C)CCC[C@H](C)C3=C[C@H]12 [alantolactone]

OUTPUT:
1.22
1.03

For every record below, what is its inhibition of SARS-CoV-2 cytopathic effect?
1. Cc1ccc([N+](=O)[O-])cc1O [2-methyl-5-nitrophenol]
2. COc1ccc(NS(=O)(=O)c2ccc(/N=N/c3ccc(O)c(C(=O)O)c3)cc2)nn1 [salazodine]
3. COc1cc(NC(=O)c2cccc(-n3cc(NC(=O)Nc4cccc(C)c4)cn3)c2)cc(OC)c1OC
4. Nc1c(Br)cc(Br)cc1CN[C@H]1CC[C@H](O)CC1 [ambroxol]

OUTPUT:
1: -3.09; 2: -1.71; 3: 0.39; 4: 1.23

Values from the supplement of paper PMC13380429
